STUDY TARGET: rat VR1 (Rattus norvegicus, UniProt O35433)
Construct: expressed in transfected cells
Sequence (O35433 whole entry): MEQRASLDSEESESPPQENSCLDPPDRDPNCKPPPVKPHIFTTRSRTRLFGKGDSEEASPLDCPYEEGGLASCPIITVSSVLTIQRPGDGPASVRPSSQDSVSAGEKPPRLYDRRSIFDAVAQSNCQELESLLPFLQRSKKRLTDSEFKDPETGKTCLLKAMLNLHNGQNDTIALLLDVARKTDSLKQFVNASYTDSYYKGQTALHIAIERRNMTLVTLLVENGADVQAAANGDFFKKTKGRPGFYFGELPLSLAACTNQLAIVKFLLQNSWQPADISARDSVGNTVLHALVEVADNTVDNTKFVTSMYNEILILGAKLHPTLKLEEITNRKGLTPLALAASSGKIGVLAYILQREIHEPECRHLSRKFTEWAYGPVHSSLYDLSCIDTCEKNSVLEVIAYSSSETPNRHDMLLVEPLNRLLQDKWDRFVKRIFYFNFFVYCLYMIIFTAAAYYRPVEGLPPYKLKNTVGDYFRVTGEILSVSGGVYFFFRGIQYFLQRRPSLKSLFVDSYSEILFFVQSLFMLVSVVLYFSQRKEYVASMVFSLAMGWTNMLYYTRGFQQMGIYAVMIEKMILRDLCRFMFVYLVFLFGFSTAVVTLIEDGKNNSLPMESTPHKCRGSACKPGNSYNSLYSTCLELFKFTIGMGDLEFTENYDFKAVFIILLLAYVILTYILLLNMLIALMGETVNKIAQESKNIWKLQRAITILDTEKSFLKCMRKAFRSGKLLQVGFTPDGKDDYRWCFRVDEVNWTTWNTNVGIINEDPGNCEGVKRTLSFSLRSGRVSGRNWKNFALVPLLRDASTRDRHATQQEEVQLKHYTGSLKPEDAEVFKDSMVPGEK
PROTOCOL SUMMARY: 45Ca2+-uptake assay in CHO/VR1 cells, antagonism of capsaicin-stimulated uptake
Format: cell-based
ASSAY CONTEXT: 45Ca2+ uptake stimulated by 50 nM capsaicin
Binary call on Ki with cut-off 500 nM: strictly below means fulfilled, and equality or higher means not fulfilled.

Below, 6 compounds whose answers are already recorded.
compound="CC(C(=O)NCc1ccc(C(C)(C)C)cc1)c1ccc(NS(C)(=O)=O)c(F)c1 (centres unmarked) [1-51]" label=fulfilled
compound="CC(C(=O)NCc1ccc(Cl)cc1)c1ccc(NS(C)(=O)=O)c(Cl)c1 (centres unmarked) [4-2]" label=fulfilled
compound="Oc1cc2c(cc1O)CN(C(=S)NCCc1ccc(Cl)cc1)CCC2 [capsazepine, reference compound]" label="not fulfilled"
compound="Cc1ccc(C=CC(=O)NC(C)c2ccc(NS(C)(=O)=O)c(F)c2)cc1C (centres unmarked) [24-5]" label="not fulfilled"
compound="CC(C(=O)NCc1ccc(C(C)(C)C)cc1)c1ccc(NS(C)(=O)=O)c(C#N)c1 (centres unmarked) [1-56]" label=fulfilled
compound="C[C@H](C(=O)NC[C@@H](COC(=O)C(C)(C)C)Cc1ccccc1)c1ccc(NS(C)(=O)=O)c(F)c1 [6-6]" label=fulfilled

q: Say whether its Ki is strictly beneath 500 nM. Entry: CC(C(=O)NCc1ccc(Cl)cc1)c1ccc(NS(C)(=O)=O)cc1 (centres unmarked) [2-8]
a: not fulfilled

q: Say whether its Ki is strictly beneath 500 nM. Entry: COc1cc(C2(C(=O)NCC(COC(=O)C(C)(C)C)Cc3ccc(C)c(C)c3)CC2)ccc1NS(C)(=O)=O (centres unmarked) [12-3]
a: fulfilled

###

STUDY TARGET: rat VR1 (Rattus norvegicus)
Construct: expressed in transfected cells
PROTOCOL SUMMARY: [3H]resiniferatoxin (RTX) competition binding assay, VR1-transfected CHO cells
ASSAY CONTEXT: competition with [3H]RTX, rat VR1 in CHO cells; read-out: Ki (nM) Binding Affinity
QUANTITY: Ki (nM)
Numbers only, in nM.

compound=COc1cc(C2(NC(=S)NCc3ccc(C(C)(C)C)cc3)CC2)ccc1NS(C)(=O)=O measured_result=372
compound="Cc1ccc(CC(CNC(=O)C(C)c2ccc(NS(C)(=O)=O)c(Cl)c2)COC(=O)C(C)(C)C)cc1C (centres unmarked)" measured_result=11.3
compound=C[C@H](C(=O)NC[C@H](COC(=O)C(C)(C)C)Cc1ccccc1)c1ccc(NS(C)(=O)=O)c(F)c1 measured_result=43.4
compound=COc1cc(C(C)(C)NC(=S)NCc2ccc(C(C)(C)C)cc2)ccc1NS(C)(=O)=O measured_result=2890
compound="CC(NC(=S)NCc1ccc(C(C)(C)C)cc1)c1ccc(NS(C)(=O)=O)c(F)c1 (centres unmarked)" measured_result=54
compound="CC(C(=O)NCc1ccc(C(F)(F)F)cc1)c1ccc(NS(C)(=O)=O)c(F)c1 (centres unmarked)" measured_result=657
compound="CC(C(=O)NCC(COC(=O)C(C)(C)C)Cc1ccc(C(C)(C)C)cc1)c1ccc(NS(C)(=O)=O)c(Cl)c1 (centres unmarked)" measured_result=3.62
compound="CC(C(=O)NOCc1ccccc1)c1ccc(NS(C)(=O)=O)c(F)c1 (centres unmarked)" measured_result=9420
compound="COc1cc(C(C)C(=O)NCC(COC(=O)C(C)(C)C)Cc2ccc(C(C)(C)C)cc2)ccc1NS(C)(=O)=O (centres unmarked)" measured_result=24
compound="COc1cc(C(C)C(=O)NCC(COC(=O)C(C)(C)C)Cc2ccc(C)c(C)c2)ccc1NS(C)(=O)=O (centres unmarked)" measured_result=71.2

Give Ki for all compounds that follow.
1. CC(C(=O)NCc1ccc(Cl)c(Cl)c1)c1ccc(NS(C)(=O)=O)c(F)c1 (centres unmarked)
2. CC(C(=O)NCC(COC(=O)C(C)(C)C)Cc1ccc(C(C)(C)C)cc1)c1ccc(NS(C)(=O)=O)cc1 (centres unmarked)
3. C[C@@H](NC(=S)NCc1ccc(C(C)(C)C)cc1)c1ccc(NS(C)(=O)=O)cc1
4. CC(C)(C)c1ccc(CNC(=S)NC(C)(C)c2ccc(NS(C)(=O)=O)c(F)c2)cc1
5. CCC(NC(=S)NCc1ccc(C(C)(C)C)cc1)c1ccc(NS(C)(=O)=O)c(F)c1 (centres unmarked)
6. CC(C(=O)NCC(c1ccccc1)c1ccccc1)c1ccc(NS(C)(=O)=O)c(F)c1 (centres unmarked)
7. COc1cc(C(C)NC(=S)NCc2ccc(C(C)(C)C)cc2)ccc1NS(C)(=O)=O (centres unmarked)

a:
1: 199; 2: 55.2; 3: 40.8; 4: 7740; 5: 230; 6: 1700; 7: 66.5

Provenance of the data: patent US8642657B2
